List of IC50 values.
target_under_test: Beta-Amyloid (1–42) (Homo sapiens, UniProt P05067)
Construct: SensoLyte® Thioflavin T Beta-Amyloid (1–42) Aggregation Kit
Sequence (P05067 672-713): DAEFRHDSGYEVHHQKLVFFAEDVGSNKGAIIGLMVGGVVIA
test_summary: biochemical
condition_parameters: Aβ aggregation, Thioflavin T; mean ± standard deviation; read-out: IC50 ± SD Aβ42 inhibition
Numbers only; they are read as nM.

Take a look at these entries with their results.
Exercise: Provide IC50 value for the following compound: "COc1cc(Cn2cc(COc3ccc(C(=O)O)cc3OC)nn2)ccc1O"
Solution: 1480

Exercise: Report IC50, nothing else, for this compound: "COc1cc(Cn2cc(COc3ccc(C=O)cc3OC)nn2)ccc1O"
Solution: 4850

Exercise: Tell me measured IC50 for "COc1cc(/C=C/C(=O)OCc2cn(Cc3ccc(O)c(OC)c3)nn2)ccc1O" please.
Solution: 310

Exercise: For the compound "COc1cc(Cn2cc(COc3ccc(C=CC=O)cc3OC)nn2)ccc1O" , give its measured IC50 value.
Solution: 2860

Others:
Exercise: Retrieve IC50 measured for "COc1cc(Cn2cc(COc3ccc(C=CC(=O)O)cc3OC)nn2)ccc1O" and print it.
Solution: 4480

----------
target_under_test: Beta-Amyloid (1–42) (Homo sapiens, UniProt P05067)
Construct: SensoLyte® Thioflavin T Beta-Amyloid (1–42) Aggregation Kit
test_summary: biochemical
condition_parameters: Aβ aggregation, Thioflavin T; mean ± standard deviation; read-out: IC50 ± SD Aβ42 inhibition
pIC50 values, listed per item
// field semantics: pIC50 = negative decimal log of concentration (mol/L)

Exercise: Identify measured pIC50 corresponding to "CCOC(=O)c1ccc(OCc2cn(Cc3ccc(O)c(OC)c3)nn2)c(OC)c1"
Solution: 5.80

Exercise: Assign pIC50 to the following record: "C=CCc1ccc(OCc2cn(Cc3ccc(O)c(OC)c3)nn2)c(OC)c1"
Solution: 4.64

Exercise: Tell me measured pIC50 for "COc1cc(Cn2cc(COC(=O)c3ccc(O)c(OC)c3)nn2)ccc1O" please.
Solution: 6.02

Now consider the entry below.
Exercise: Please look at this molecule and report its pIC50: "CCOC(=O)C=Cc1ccc(OCc2cn(Cc3ccc(O)c(OC)c3)nn2)c(OC)c1"
Solution: 5.51

----------
Quick record: log10 IC50, hAChE (Homo sapiens).
Quick note: numbers are log10 of IC50, with µM as the unit.

Exercise: Read the entry "CCOC(=O)c1ccc(OCc2cn(Cc3ccc(O)c(OC)c3)nn2)c(OC)c1" and write its reported log10 IC50.
Solution: 0.32

Exercise: Supply log10 IC50 value. Item: "COc1cc(/C=C/C(=O)OCc2cn(Cc3ccc(O)c(OC)c3)nn2)ccc1O"
Solution: -0.33

Exercise: Give a short answer stating reported log10 IC50 for "COc1cc(Cn2cc(COc3ccc(C(=O)O)cc3OC)nn2)ccc1O" .
Solution: 0.32

Exercise: Please look at this compound and report its log10 IC50: "C=CCc1ccc(OCc2cn(Cc3ccc(O)c(OC)c3)nn2)c(OC)c1"
Solution: 1.43

Exercise: Input "COc1cc(Cn2cc(COc3ccc(C=CC=O)cc3OC)nn2)ccc1O" , output reported log10 IC50.
Solution: 0.74

---
Exercise: Annotate the compound "CCOC(=O)C=Cc1ccc(OCc2cn(Cc3ccc(O)c(OC)c3)nn2)c(OC)c1" with its measured log10 IC50.
Solution: 0.40

Exercise: Complete the entry with log10 IC50 for "COc1cc(Cn2cc(COc3ccc(C=O)cc3OC)nn2)ccc1O"
Solution: 1.15

Exercise: Assign log10 IC50 to the following record: "COc1cc(Cn2cc(COc3ccc(C=CC(=O)O)cc3OC)nn2)ccc1O"
Solution: 1.03

Exercise: Give log10 IC50 for "COc1cc(Cn2cc(COC(=O)c3ccc(O)c(OC)c3)nn2)ccc1O"
Solution: 0.08
